The reported measurements were obtained from patent US7452997B2.

Target: human CB1 receptor (Homo sapiens, UniProt P21554)
Construct: expressed in transfected cells; host or cells: SK-N-MC cells, stably transfected with pcDNA3 CB-1 (human); semi-purified membrane pellet
Sequence (P21554 whole entry): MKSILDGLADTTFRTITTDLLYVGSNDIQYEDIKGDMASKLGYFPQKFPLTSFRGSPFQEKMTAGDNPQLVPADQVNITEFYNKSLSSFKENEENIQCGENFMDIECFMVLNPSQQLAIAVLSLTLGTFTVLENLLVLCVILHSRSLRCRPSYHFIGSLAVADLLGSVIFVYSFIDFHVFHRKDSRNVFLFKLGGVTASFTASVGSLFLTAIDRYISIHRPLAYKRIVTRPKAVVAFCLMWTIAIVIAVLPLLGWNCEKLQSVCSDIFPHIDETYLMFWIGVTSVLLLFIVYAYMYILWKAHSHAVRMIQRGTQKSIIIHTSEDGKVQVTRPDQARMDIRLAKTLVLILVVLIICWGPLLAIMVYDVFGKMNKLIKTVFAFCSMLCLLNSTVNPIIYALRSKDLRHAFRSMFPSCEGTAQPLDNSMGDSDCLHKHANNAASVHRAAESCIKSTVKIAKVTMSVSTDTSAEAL
Assay: biochemical
Assay type: binding
pIC50: −log10 of the molar value.
Respond with Condition met for pIC50 values of 6 and above, Condition not met for values below.

Below are worked cases with known answers.
O=C(NN1CCCCCC1)c1nn(C2CCCCC2)c2c1CCCC2 = Condition met
CN(C)C(=O)NC1CCc2c(c(C(=O)NC3C4CC5CC(C4)CC3C5)nn2C2CCCCC2)C1 (centres unmarked) = Condition not met
C[C@@H](NC(=O)c1nn(Cc2ccccc2)c2c1CCCC2)C1CCCCC1 = Condition met
COC(=O)C(Cc1ccc(O)cc1)NC(=O)c1nn(Cc2ccccc2)c2c1CCCC2 (centres unmarked) = Condition met
CCNC(=O)[C@@H]1C2CCC(C2)[C@@H]1NC(=O)c1nn(Cc2ccccc2)c2c1CCCC2 (some centres unmarked) = Condition not met

Request: Check the entry C[C@H](C1CCCCC1)N(C)C(=O)c1nn(C2CCCCC2)c2c1CCCC2 : does pIC50 equal or exceed 6?
Response: Condition not met

Request: Input CC(NC(=O)c1nn(C2CCCCC2)c2c1CCCC2O)C12CC3CC(CC(C3)C1)C2 (centres unmarked)
Response: Condition not met
